Measured values drawn from PubChem BioAssay AID488969 for this set.

Measured z-score by item
# target-of-assay: Metabotropic glutamate receptor 8 (Rattus norvegicus) (UniProt P70579)
# Sequence (P70579 whole entry, looked up): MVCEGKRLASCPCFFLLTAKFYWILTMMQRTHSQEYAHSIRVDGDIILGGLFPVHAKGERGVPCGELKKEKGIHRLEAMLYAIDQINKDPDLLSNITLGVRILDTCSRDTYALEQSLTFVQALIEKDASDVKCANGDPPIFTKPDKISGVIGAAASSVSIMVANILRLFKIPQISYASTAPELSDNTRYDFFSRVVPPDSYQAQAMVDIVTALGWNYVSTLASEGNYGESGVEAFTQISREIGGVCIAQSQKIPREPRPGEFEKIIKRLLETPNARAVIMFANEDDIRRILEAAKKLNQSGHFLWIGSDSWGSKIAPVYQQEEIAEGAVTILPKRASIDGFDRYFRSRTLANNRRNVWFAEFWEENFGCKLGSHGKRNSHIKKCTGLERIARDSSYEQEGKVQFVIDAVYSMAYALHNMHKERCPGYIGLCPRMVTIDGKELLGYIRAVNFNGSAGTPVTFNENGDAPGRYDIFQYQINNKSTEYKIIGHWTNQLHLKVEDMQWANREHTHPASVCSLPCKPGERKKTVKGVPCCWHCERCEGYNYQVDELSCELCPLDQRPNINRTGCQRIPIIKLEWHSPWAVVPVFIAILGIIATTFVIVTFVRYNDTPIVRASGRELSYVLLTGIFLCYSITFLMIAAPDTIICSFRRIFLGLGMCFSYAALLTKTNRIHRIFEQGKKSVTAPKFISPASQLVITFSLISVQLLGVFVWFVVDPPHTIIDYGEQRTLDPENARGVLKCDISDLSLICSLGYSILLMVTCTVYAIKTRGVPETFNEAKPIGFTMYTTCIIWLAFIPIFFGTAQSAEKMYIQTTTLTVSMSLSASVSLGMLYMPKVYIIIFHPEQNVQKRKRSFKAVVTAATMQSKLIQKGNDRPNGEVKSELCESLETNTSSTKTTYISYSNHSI
# assay-protocol: mGluR8 Gi/Go-coupled signaling modulation – cell-based, rat, thallium flux, HTS, primary screen (AID 488969)
# test-conditions: HEK293 rat mGluR8, GIRK (G protein-gated inwardly rectifying potassium channel) thallium flux, FluoZin2; at 10 µM; stronger effect = higher value; submaximal glutamate (EC20) added with thallium
Whole data set: some 110,000 compounds, median “z-score” near -0.1, cut for the highest 2% near 2. Many of the other results were omitted from the sample, so the highest values are more common in it than they were.
Write no unit; give the number alone.

// known answers, use as guide
molecule	observable	reported-result
COCCNC(=O)CCCCCn1c(=S)[nH]c2ccccc2c1=O	z-score	1.77
CC1CCCN(C(=O)CCCn2c(=S)[nH]c3ccccc3c2=O)C1 (configuration not stated)	z-score	4.5
C/C(N)=C(/C#N)C(=O)CSc1nnnn1-c1ccc(C)cc1	z-score	0.331
CCn1c(O)c(N=NC(=O)CNc2cccc(C)c2)c2ccccc21	z-score	1.4
O=c1[nH]c2ccccc2c(=O)n1Cc1ccccc1	z-score	0.345

Reported z-score for Cc1cccc(CCNC(=O)C2CCC(CNc3c(N4CCCC4)c(=O)c3=O)CC2)c1 (configuration not stated) : what is it?
-0.262

Same question, `COCCn1c(SCc2nc(N)nc(Nc3ccccc3C)n2)nc2ccccc2c1=O` this time
-0.279
